- tested_target: ACE2 (human, UniProt Q9BYF1 18-740)
- Sequence (Q9BYF1 18-740 limits assumed): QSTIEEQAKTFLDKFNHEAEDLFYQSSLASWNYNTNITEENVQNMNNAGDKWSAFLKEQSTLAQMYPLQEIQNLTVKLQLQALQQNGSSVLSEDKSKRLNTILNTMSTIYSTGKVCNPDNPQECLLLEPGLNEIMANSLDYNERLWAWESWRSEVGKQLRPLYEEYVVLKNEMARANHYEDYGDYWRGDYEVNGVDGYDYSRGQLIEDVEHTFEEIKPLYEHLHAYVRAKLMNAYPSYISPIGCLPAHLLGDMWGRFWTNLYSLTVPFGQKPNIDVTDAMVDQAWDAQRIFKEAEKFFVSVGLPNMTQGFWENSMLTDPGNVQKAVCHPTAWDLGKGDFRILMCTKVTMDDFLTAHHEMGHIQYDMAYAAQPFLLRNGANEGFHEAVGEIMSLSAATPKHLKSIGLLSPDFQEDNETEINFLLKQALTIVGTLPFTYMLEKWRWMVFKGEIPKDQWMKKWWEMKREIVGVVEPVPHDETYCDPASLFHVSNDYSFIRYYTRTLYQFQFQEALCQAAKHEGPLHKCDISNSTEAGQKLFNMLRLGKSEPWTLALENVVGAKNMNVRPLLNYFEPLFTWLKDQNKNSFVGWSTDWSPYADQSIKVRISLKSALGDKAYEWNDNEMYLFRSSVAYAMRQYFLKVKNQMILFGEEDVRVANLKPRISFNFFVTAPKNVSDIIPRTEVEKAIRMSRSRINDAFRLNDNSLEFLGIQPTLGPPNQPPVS

binder: ACE2 variant antibody 3-8 (antibody, V domains shown) VH: EVQLLESGGGLVQPGGSLRLSCAASGFTFRSHAMSWVRQAPGKGLEWVSSISGGGASTYYADSVKGRFTISRDNSKNTLYLQMNSLRAEDTAVYYCARVKYLTTSSGWPRPYFDNWGQGTLVTVSS VL: DIQMTQSPSSLSASVGDRVTITCRASQSIGKYLNWYQQKPGKAPKLLIYASSTLQRGVPSRFSGSGSGTDFTLTISSLQPEDFATYYCQQSLSTPFTFGQGTKVEIK
kon: 114000 M⁻¹ s⁻¹

binder: ACE2 variant antibody 4-67 (VHH) VHH: EVQLVESGGGLVQPGGSLRLSCAASGRTFSDDTMGWFRQAPGKEREFVAAINWSGDSTYYADSVKGRFTISADNSKNTAYLQMNSLKPEDTAVYYCATDPPLFWGQGTLVTVSS
kon: 93900 M⁻¹ s⁻¹
